# assay-system: human IDO1 protease (Homo sapiens (Human), UniProt P14902)
# Sequence (P14902 whole entry): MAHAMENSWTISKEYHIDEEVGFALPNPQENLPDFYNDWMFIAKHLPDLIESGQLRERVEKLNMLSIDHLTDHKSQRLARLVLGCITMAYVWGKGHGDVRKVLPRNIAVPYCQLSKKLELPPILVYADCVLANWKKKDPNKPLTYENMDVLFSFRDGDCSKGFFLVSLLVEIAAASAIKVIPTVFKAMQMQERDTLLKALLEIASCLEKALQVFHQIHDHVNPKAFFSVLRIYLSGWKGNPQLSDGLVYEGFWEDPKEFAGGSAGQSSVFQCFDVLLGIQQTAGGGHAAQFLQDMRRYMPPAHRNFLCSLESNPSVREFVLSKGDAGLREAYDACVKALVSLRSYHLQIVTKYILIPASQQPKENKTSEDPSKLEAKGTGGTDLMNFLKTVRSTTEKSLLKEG
# procedure-text: Inhibitory activity against human IDO1 protease (absorbance test method)
# Type: biochemical
# condition-context: IDO1 (His-tag) enzyme, absorbance at 320 nm
pIC50: −log10 of the molar value.
quantity-measured: pIC50

Here is how some compounds turned out for pIC50.
Sample O=S(=O)(CCCNc1nonc1C(=NO)Nc1ccc(F)c(Br)c1)NO — what was its pIC50?
7.00

Sample O=S(=O)(CCNc1nonc1/C(=N/O)Nc1ccc(F)c(Br)c1)NCC(F)F — what was its pIC50?
7.06

Sample CNS(=O)(=O)CCNc1nonc1C(=NO)Nc1ccc(F)c(Br)c1 — what was its pIC50?
7.27

(P) O=S(=O)(CCNc1nonc1C(=NO)Nc1ccc(F)c(Br)c1)NCCO
(Q) CONS(=O)(=O)CCCNc1nonc1C(=NO)Nc1ccc(F)c(Br)c1
Please state the entry with greater pIC50 among P and Q . Write down the label of the entry you select.
P
